- Tested on: VchCAST RNA-guided transposition machinery (E. coli BL21(DE3) host, lacZ target)
- Measurement Description: relative integration efficiency (T-RL orientation) vs wild-type transposon end (log2 (normalized fold change)); transposon end mutated: right end (5 bp flank + 75 bp right end); higher = more efficient transposition
Classes by relative integration efficiency (log2): lower segment (below -2), middle segment (-2 to below -1), upper segment (-1 or more)

Reference set (5 entries):
[in] For this sequence, which bin applies? ACATTTGTTGATACAACCATAAAATGATAAGTACACCCATAAATTGATAAGTATCACACCCATAAATTGATATGGCCTCTGATCATAGTCAGACCAACATTGCTACGACCCGTATTCGCACCGACAC
[out] upper segment

[in] Then this sequence: ACATTTGTTGATACAACCATAAAATGATAATTAATAATCACCCATAAATTGATAATTATCACACCCATAAATTGATATTGCCTCTGATCATAGTCAGACCAACATTGCTACGACCCGTATTCGCACC
[out] lower segment

[in] Then this sequence: ACATTTGTTCATACAACCATAAAACGATAATTACACCCATAAATTGATAATTATCACACCCAATTTAACTATAACGCTCTGATCATAGTCAGACCAACATTGCTACGACCCGTATTCGCACCGACAC
[out] upper segment

[in] Then this sequence: ACATTTGTTGATACAACCAAAAAATGATAATTACACCCATAAATTGATAATAATGACACCGAATTTAACTATAACGCTCTGATCATAGTCAGACCAACATTGCTACGACCCGTATTCGCACCGACAC
[out] middle segment

[in] Then this sequence: ACATTTGTTGATACAACCATAAAATGAAAATTACACCCATAAATTGAAAATTATCACACCCATAAATTGAAATTGCCTCTGATCATAGTCAGACCAACATTGCTACGACCCGTATTCGCACCGACAC
[out] middle segment

Now, please, on to the next sequence.
[in] For this sequence, which bin applies? ACATTTGTGGATACAACCATAAAATGATAATTACACCCATAAATTCATCATTATCACCCCCAATTTAACTATAACGCTCTGATCATAGTCAGACCAACATTGCTACGACCCGTATTCGCACCGACAC
[out] middle segment

Data origin, for the record: the supplement of paper PMC10201428
